B1: Caulobacter ParB omega fusion; a variant is named by its letters at X, in order, B8GW30 (parent)
chain: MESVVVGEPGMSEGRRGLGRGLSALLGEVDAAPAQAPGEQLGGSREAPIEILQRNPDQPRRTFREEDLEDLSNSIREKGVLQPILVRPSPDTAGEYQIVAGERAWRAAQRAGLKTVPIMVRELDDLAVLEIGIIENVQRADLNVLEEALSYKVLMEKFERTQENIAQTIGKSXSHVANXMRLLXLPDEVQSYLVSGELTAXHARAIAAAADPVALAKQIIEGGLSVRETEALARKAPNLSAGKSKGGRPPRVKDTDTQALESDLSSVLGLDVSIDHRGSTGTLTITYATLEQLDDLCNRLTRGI

- Variants of: B1
- test summary: one-hybrid fitness for binding parS DNA (scaled: cognate 1, non-cognate 0); higher = stronger binding
- test conditions: with parS DNA site
Over roughly 81,000 sequences, “one-hybrid fitness for binding parS DNA” has its median near -0.17; the highest 2% begin near 0.51. Shown is part of a subset that was picked to be rich in the highest values.
measured quantity: one-hybrid fitness for binding parS DNA

Study these solved cases before continuing.
>>> print(df.to_string())
   mutation_id                        measured_quantity  result
0         ILAD  one-hybrid fitness for binding parS DNA   ≤ 0.2
1         ANQN  one-hybrid fitness for binding parS DNA   ≤ 0.2
2         RGLD  one-hybrid fitness for binding parS DNA   ≤ 0.2

**Q:** Quote one-hybrid fitness for binding parS DNA reported for RMDN please.
**A:** 0.375

**Q:** Please indicate one-hybrid fitness for binding parS DNA recorded for ESDG
**A:** ≤ 0.2

**Q:** Report one-hybrid fitness for binding parS DNA for PRQV
**A:** ≤ 0.2

**Q:** Please indicate one-hybrid fitness for binding parS DNA recorded for ASKM
**A:** ≤ 0.2

**Q:** Check the records and state one-hybrid fitness for binding parS DNA for DTLV
**A:** ≤ 0.2

**Q:** Identify one-hybrid fitness for binding parS DNA associated with the variant RMYQ
**A:** 0.205

**Q:** Look up one-hybrid fitness for binding parS DNA of LVSL and report it.
**A:** ≤ 0.2

**Q:** Identify measured one-hybrid fitness for binding parS DNA associated with YVGI
**A:** ≤ 0.2

**Q:** Look up one-hybrid fitness for binding parS DNA of RMGL and report it.
**A:** ≤ 0.2

**Q:** Give recorded one-hybrid fitness for binding parS DNA. PTHK
**A:** ≤ 0.2

**Q:** Fill in reported one-hybrid fitness for binding parS DNA for this entry: NDSK
**A:** ≤ 0.2

**Q:** Return value of one-hybrid fitness for binding parS DNA for input MNTS , no commentary.
**A:** ≤ 0.2

**Q:** Let me know recorded one-hybrid fitness for binding parS DNA for NLNG , thanks.
**A:** ≤ 0.2

**Q:** Quick one: give measured one-hybrid fitness for binding parS DNA for LAFP
**A:** ≤ 0.2

**Q:** Look up and report measured one-hybrid fitness for binding parS DNA for this entry: RMYR
**A:** 0.225

**Q:** Look up one-hybrid fitness for binding parS DNA of LAFI and report it.
**A:** ≤ 0.2

**Q:** For the variant TDNV , report one-hybrid fitness for binding parS DNA.
**A:** ≤ 0.2

**Q:** Give the measured one-hybrid fitness for binding parS DNA for GENW
**A:** ≤ 0.2

**Q:** Identify measured one-hybrid fitness for binding parS DNA associated with QYPA
**A:** ≤ 0.2

**Q:** Give the reported value of one-hybrid fitness for binding parS DNA for this record: RPGC
**A:** ≤ 0.2
